experiment: Half life in athymic nu/nu mouse at 10 mg/kg, iv; format: ADME, organism-based; parameters: dose 10 mg/kg, route intravenous; conditions: in vivo
READOUT_NAME: half-life
Don't forget the unit after the value.

Challenge: Look up half-life for this compound: `CSc1nc(N)nc(-c2ccc3c4c(cc(Cl)cc24)COC3)n1`
Response given: 15 min

---

molecular target: UniProt P07900
Kindly supply the reported pKd values for the records listed here.
One number for each entry, as −log10 of the molar value.

See these solved cases before continuing.
Challenge: Requested read-out: pKd. Entry: `Cc1ccc2cc1-c1cc(nc(N)n1)Sc1cccc(c1)OCCCO2`
Response given: 6.92

Challenge: Continue with `CCOc1cc(C)c2cc1C(=O)NCCCOc1cccc(c1)Sc1cc-2nc(N)n1`
Response given: 8.00

Challenge: Next compound up: `Cc1cc(C)c2cc1C(=O)NCCNC(=O)CCCSc1cc-2nc(N)n1`
Response given: 9.21

As a next step, examine the compound that follows.
Challenge: Item under review: `Cc1cc(C)c2cc1C(=O)NCCNC(=O)OCCSc1cc-2nc(N)n1` . Reported pKd?
Response given: 9.10

Provenance of the data: ChEMBL document CHEMBL1938253
